study_system: T1, human IL-17A (construct not stated) (human, UniProt Q16552 24-155, limits assumed)
T1 sequence: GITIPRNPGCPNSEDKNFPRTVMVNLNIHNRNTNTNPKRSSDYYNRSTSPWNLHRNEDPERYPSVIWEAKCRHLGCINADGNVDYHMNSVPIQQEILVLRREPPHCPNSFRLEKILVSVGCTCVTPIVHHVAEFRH
assay_procedure: cell-based or functional assay
measurement_kind: EC50, in vitro neutralization activity, T = 4 weeks at pH 8, 40°C (forced deamidation) (ng/ml)
Write down the numeric answer in ng/ml and omit the unit.

| binder | measured |
| --- | --- |
| XAB3 (antibody, human IgG1, kappa, V domains shown, also called MB468 N56Q) VH: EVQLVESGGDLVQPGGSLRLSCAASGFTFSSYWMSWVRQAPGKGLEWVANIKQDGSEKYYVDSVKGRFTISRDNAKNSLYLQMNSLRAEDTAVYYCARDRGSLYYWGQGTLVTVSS VL: AIQLTQSPSSLSASVGDRVTITCRPSQGIYWELAWYQQKPGKAPKLLIYDASSLEQGVPSRFSGSGSGTDFTLTISSLQPEDFATYYCQQFNSYPLTFGGGTKVEIKR | 40 |
| XAB5 (antibody, human IgG1, kappa, V domains shown) VH: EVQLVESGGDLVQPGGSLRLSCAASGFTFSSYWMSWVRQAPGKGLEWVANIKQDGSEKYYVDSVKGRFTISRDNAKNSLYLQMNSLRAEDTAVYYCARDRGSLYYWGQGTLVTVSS VL: AIQLTQSPSSLSASVGDRVTITCRPSQGINWELAWYQQKPGKAPKLLIYDASSLENGVPSRFSGSGSGTDFTLTISSLQPEDFATYYCQQFNSYPLTFGGGTKVEIKR | 61 |
| XAB2 (antibody, human IgG1, kappa, V domains shown) VH: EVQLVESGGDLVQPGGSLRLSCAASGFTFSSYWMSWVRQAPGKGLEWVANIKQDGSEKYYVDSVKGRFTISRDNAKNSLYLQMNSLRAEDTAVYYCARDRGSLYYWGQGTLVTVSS VL: AIQLTQSPSSLSASVGDRVTITCRPSQVIISALAWYQQKPGKAPKLLIYDASSLEQGVPSRFSGSVSGTDFTLTISSLQPEDFATYYCQQFDSYPLTFGGGTKVEIKR | 47 |

# EC50, in vitro neutralization activity, T = 4 weeks at pH 8, 40°C (forced deamidation) of XAB4 (antibody, human IgG1, kappa, V domains shown, also called MB435 N56Q) VH: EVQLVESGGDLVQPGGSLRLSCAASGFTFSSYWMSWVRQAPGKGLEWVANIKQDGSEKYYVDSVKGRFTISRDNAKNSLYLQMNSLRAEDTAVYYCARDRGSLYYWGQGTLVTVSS VL: AIQLTQSPSSLSASVGDRVTITCRPSQGINWELAWYQQKPGKAPKLLIYDASSLEQGVPSRFSGSGSGTDFTLTISSLQPEDFATYYCQQFNSYPLTFGGGTKVEIKR = 47
